assay_details: Metabolic stability in human liver microsomes assessed as half-life
Format: ADME, Microsome
value_type: half-life

Report half-life for `Cc1nc2cc(F)c(-c3cnc(C(C)(C)O)nc3)nc2c(N[C@H](C)c2cc(C#N)ccc2F)c1Cl` please. > 2 h

###

assay_details: Half-life in mouse at 0.5 mg/kg, iv
Format: ADME, organism-based
condition_summary: in vivo
value_type: half-life (h)
Give the value in h but do not write h after it.

Report half-life for `Cc1nc2cc(F)c(-c3cnc(C(C)(C)O)nc3)nc2c(N[C@H](C)c2cc(C#N)ccc2F)c1Cl` please. 6.2

###

subject_of_test: Cytochrome P450 1A2 (Homo sapiens, UniProt P05177)
Sequence (P05177 whole entry): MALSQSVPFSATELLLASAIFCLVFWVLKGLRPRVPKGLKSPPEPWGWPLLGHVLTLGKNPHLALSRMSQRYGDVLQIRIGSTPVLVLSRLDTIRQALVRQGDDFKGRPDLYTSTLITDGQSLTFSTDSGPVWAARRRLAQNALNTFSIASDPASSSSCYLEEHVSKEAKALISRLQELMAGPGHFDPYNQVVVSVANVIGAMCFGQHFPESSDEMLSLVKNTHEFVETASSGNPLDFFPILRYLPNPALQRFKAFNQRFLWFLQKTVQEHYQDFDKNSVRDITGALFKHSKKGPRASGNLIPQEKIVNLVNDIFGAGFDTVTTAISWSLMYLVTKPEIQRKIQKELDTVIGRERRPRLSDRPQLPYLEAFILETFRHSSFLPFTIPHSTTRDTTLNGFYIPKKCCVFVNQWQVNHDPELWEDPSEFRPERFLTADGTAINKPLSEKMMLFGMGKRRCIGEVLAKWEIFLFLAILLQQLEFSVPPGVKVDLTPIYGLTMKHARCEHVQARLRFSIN
assay_details: Inhibition of recombinant CYP1A2 (unknown origin)
pIC50: −log10 of the molar value.
value_type: pIC50

Report pIC50 for `Cc1nc2cc(F)c(-c3cnc(C(C)(C)O)nc3)nc2c(N[C@H](C)c2cc(C#N)ccc2F)c1Cl` please. < 4.70

###

subject_of_test: Tumor necrosis factor (Homo sapiens, UniProt P01375)
Sequence (P01375 whole entry, the tested form may be a part): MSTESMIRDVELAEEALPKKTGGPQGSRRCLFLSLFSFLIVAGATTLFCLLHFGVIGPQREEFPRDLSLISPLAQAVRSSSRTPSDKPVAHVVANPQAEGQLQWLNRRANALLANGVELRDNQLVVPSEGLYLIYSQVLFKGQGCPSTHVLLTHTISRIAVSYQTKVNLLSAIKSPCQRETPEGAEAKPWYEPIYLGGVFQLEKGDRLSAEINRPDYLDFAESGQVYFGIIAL
assay_details: Displacement of fluorescent labeled probe from human recombinant His-tagged TNFalpha (77 to 233 residues) expressed in Escherichia coli preincubated for 1 hr followed by fluorogenic probe addition and measured after 3 hrs by HTRF assay
# key: entry, value: pIC50
The value called pIC50 is obtained by taking minus log10 of the concentration in mol/L.

Record excerpt, results attached:
C[C@@H](Nc1c(Cl)cnc2ccc(-c3cnc(N4CCS(=O)(=O)CC4)nc3)cc12)c1ccccc1F	7.60
C[C@@H](Nc1c(Cl)cnc2ccc(-c3cnc(C(C)(C)O)nc3)cc12)c1ccccc1	7.85
C[C@H](Nc1c(Cl)cnc2ccc(-c3cnc(C(C)(C)O)nc3)cc12)c1ccccc1	6.03
CC(Nc1c(Cl)cnc2ncc(-c3cnc(C(C)(C)O)nc3)cc12)c1ccccc1F (racemic)	6.68
C[C@@H](Nc1ccnc2ccc(-c3cnc(C(C)(C)O)nc3)cc12)c1cc(N2CCCC2)ccc1F	4.82
Cc1ccc(C)c(Nc2ccnc3ccc(-c4ccc(C#N)nc4)cc23)c1	6.37
CC(Nc1c(Cl)cnc2ccc(-c3cnc(C(C)(C)O)nc3)cc12)c1ccccc1C(F)(F)F (racemic)	7.29

Report pIC50 for `Cc1ccc(C)c(Nc2c(Cl)cnc3ccc(-c4ccc(C#N)nc4)cc23)c1` please. 7.46

###

subject_of_test: Cytochrome P450 3A4 (Homo sapiens)
Sequence (P08684 whole entry): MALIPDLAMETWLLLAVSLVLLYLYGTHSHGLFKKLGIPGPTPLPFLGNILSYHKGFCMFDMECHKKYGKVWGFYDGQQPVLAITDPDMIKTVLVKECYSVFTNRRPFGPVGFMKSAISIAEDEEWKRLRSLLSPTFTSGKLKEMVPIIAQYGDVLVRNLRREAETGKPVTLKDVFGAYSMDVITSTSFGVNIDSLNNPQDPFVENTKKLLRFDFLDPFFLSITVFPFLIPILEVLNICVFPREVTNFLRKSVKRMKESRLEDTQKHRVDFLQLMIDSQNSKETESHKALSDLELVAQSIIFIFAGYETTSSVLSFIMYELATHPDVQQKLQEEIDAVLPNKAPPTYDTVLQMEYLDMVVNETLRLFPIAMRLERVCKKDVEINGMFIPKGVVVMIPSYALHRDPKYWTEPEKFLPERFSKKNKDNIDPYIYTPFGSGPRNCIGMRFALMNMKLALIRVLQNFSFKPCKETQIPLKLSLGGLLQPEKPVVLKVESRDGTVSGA
assay_details: Inhibition of recombinant CYP3A4 (unknown origin) in presence of BFC as substrate
pIC50: −log10 of the molar value.
value_type: pIC50

Report pIC50 for `Cc1nc2cc(F)c(-c3cnc(C(C)(C)O)nc3)nc2c(N[C@H](C)c2cc(C#N)ccc2F)c1Cl` please. < 4.70

###

assay_details: Total AUC in mouse at 0.5 mg/kg, iv
Assay type: ADME, organism-based
Parameters: route intravenous, time AUCmax, dose 0.5 mg/kg
condition_summary: in vivo
value_type: AUC (µM·h)
Give the value in µM·h but do not write µM·h after it.

Report AUC for `Cc1nc2cc(F)c(-c3cnc(C(C)(C)O)nc3)nc2c(N[C@H](C)c2cc(C#N)ccc2F)c1Cl` please. 2.5

###

subject_of_test: Tumor necrosis factor (Homo sapiens)
assay_details: Inhibition of human recombinant His-tagged TNF-alpha-mediated E-selectin expression in HUVEC cells preincubated for 30 mins in presence of TNFalpha and measured after 3 hrs by flow cytometry analysis
Type: cell-based
value_type: IC50

# query: IC50 | item `Cc1nc2cc(F)c(-c3cnc(C(C)(C)O)nc3)nc2c(N[C@H](C)c2cc(C#N)ccc2F)c1Cl` | system: Tumor necrosis factor (Homo sapiens) 30 nM

###

assay_details: Metabolic stability in mouse liver microsomes assessed as parent compound remaining after 10 mins
Type: ADME, Microsome
condition_summary: read-out: Stabilty
value_type: remaining at 10 min

CC(Nc1c(Cl)cnc2cc(F)c(-c3cnc(C(C)(C)O)nc3)cc12)c1ccccc1F (racemic)	28%
C[C@@H](Nc1c(Cl)cnc2ccc(-c3cnc(C(C)(C)O)nc3)cc12)c1cc(N2CCCC2)ccc1F	18%
C[C@@H](Nc1c(Cl)cnc2ccc(-c3cnc(N4CCS(=O)(=O)CC4)nc3)cc12)c1ccccc1F	34%

# context switch: different compound, same remaining at 10 min
Report remaining at 10 min for `C[C@@H](Nc1c(Cl)cnc2ccc(-c3cnc(C(C)(C)O)nc3)cc12)c1cc(N)ccc1F` please. 45%

###

assay_details: Metabolic stability in human liver microsomes assessed as parent compound remaining after 10 mins
Assay type: ADME, Microsome
condition_summary: read-out: Stabilty
# key: entry, value: remaining at 10 min
Give the value in % but do not write % after it.

Record excerpt, results attached:
C[C@@H](Nc1c(Cl)cnc2ccc(-c3cnc(C(C)(C)O)nc3)cc12)c1cc(N)ccc1F	70
CC(Nc1c(Cl)cnc2ccc(-c3cnc(C(C)(C)O)nc3)cc12)c1ccc(F)cc1 (racemic)	42
CC(Nc1c(Cl)cnc2cc(F)c(-c3cnc(C(C)(C)O)nc3)cc12)c1ccccc1F (racemic)	70
C[C@@H](Nc1c(Cl)cnc2ccc(-c3cnc(N4CCN(CC(=O)O)CC4)nc3)cc12)c1ccccc1F	86

Report remaining at 10 min for `C[C@@H](Nc1c(Cl)cnc2ccc(-c3ccc(S(C)(=O)=O)nc3)cc12)c1ccccc1F` please. 33

Report remaining at 10 min for `C[C@@H](Nc1ccnc2ccc(-c3cnc(C(C)(C)O)nc3)cc12)c1cc(N2CCCC2)ccc1F` please. 46

Report remaining at 10 min for `C[C@@H](Nc1c(Cl)cnc2ccc(-c3cnc(C(C)(C)O)nc3)cc12)c1ccccc1` please. 45

Report remaining at 10 min for CC(C)C(Nc1c(Cl)cnc2ccc(-c3cnc(C(C)(C)O)nc3)cc12)c1ccccc1F (racemic) please. 69

Report remaining at 10 min for `C[C@@H](Nc1c(Cl)cnc2ccc(-c3cnc(C(C)(C)O)nc3)cc12)c1ccccc1F` please. 59

###

assay_details: Terminal drug exposure in anticollagen antibody-induced arthritis BALB/c mouse model at 2 mg/kg, po BID followed by LPS stimulation after 6 hrs measured on day 12
Assay type: ADME, organism-based
condition_summary: in vivo, time 12 day, read-out: Drug uptake
value_type: concentration at 288 h
Entry format: amount then unit.

Report concentration at 288 h for `Cc1nc2cc(F)c(-c3cnc(C(C)(C)O)nc3)nc2c(N[C@H](C)c2cc(C#N)ccc2F)c1Cl` please. 340 nM

###

assay_details: Permeability of the compound across basolateral to apical side of membrane in human Caco-2 cells
Assay type: ADME, cell-based
condition_summary: read-out: permeability
value_type: Papp B→A (×10⁻⁶ cm/s)
Give the value in ×10⁻⁶ cm/s but do not write ×10⁻⁶ cm/s after it.

Report Papp B→A for `Cc1nc2cc(F)c(-c3cnc(C(C)(C)O)nc3)nc2c(N[C@H](C)c2cc(C#N)ccc2F)c1Cl` please. 8

###

subject_of_test: Tumor necrosis factor (Homo sapiens)
assay_details: Inhibition of exogenous human TNFalpha in HEK-Blue-CD40L cells assessed as reduction in TNF-alpha-induced NFkappaB activation incubated for 18 hrs by quanti-blue based SEAP assay
Format: cell-based
Param label: returns Y when IC50 < 200 nM, returns N otherwise, including exact equality.

Below, 6 compounds whose answers are already recorded.
CCC(Nc1c(Cl)cnc2ccc(-c3cnc(C(C)(C)O)nc3)cc12)c1ccccc1F (racemic)	N
C[C@@H](Nc1c(Cl)cnc2ccc(-c3cnc(N4CCS(=O)(=O)CC4)nc3)cc12)c1ccccc1F	Y
C[C@@H](Nc1c(Cl)cnc2ccc(-c3cnc(C(C)(C)O)nc3)cc12)c1cc(N2CCCC2)ccc1F	N
Cc1ccc(C)c(Nc2c(Cl)cnc3ccc(-c4cnc(C(C)(C)O)nc4)cc23)c1	Y
CC(C)(O)c1ncc(-c2ccc3ncc(Cl)c(NC(C)(C)c4ccccc4)c3c2)cn1	N
CC(Nc1c(Cl)cnc2cc(Cl)c(-c3cnc(C(C)(C)O)nc3)cc12)c1ccccc1F (racemic)	Y

Field: next compound
# TODO verify IC50 < 200 nM strictly for this compound: `C[C@H](Nc1c(Cl)cnc2ccc(-c3cnc(C(C)(C)O)nc3)cc12)c1ccccc1` N

###

subject_of_test: UniProt P33261
Sequence (P33261 whole entry): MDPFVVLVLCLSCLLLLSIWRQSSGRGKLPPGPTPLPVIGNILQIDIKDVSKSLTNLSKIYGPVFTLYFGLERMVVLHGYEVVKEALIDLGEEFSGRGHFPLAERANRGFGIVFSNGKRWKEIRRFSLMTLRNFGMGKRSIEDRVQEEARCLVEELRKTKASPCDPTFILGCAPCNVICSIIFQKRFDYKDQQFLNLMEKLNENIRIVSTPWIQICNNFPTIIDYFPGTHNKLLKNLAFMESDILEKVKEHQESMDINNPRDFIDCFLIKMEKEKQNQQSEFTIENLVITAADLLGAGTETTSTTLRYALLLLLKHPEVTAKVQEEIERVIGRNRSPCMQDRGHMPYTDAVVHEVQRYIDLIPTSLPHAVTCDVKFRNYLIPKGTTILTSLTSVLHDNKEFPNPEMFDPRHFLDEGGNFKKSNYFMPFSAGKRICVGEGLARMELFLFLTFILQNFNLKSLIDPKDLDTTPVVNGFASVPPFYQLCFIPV
assay_details: Inhibition of recombinant CYP2C19 (unknown origin)
Format: ADME
# key: entry, value: pIC50
The value called pIC50 is obtained by taking minus log10 of the concentration in mol/L.

Report pIC50 for `Cc1ccc(C)c(Nc2c(Cl)cnc3ccc(-c4cnc(C(C)(C)O)nc4)cc23)c1` please. 7.52

Report pIC50 for CC(Nc1c(Cl)cnc2ccc(-c3cnc(C(C)(C)O)nc3)nc12)c1ccccc1F (single isomer, unassigned; enantiomer 2) please. 7.52

Report pIC50 for `Cc1ccc(C)c(Nc2c(Cl)c(C)nc3ccc(-c4cnc(C(C)(C)O)nc4)cc23)c1` please. 5.68

###

subject_of_test: UniProt Q06643
Sequence (Q06643 whole entry): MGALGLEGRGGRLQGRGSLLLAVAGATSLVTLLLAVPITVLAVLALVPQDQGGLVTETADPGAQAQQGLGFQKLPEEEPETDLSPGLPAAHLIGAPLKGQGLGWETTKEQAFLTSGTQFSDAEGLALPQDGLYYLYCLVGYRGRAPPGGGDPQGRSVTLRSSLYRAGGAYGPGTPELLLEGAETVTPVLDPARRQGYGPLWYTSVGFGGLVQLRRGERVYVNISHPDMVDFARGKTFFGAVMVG
value_type: IC50

Report IC50 for `Cc1nc2cc(F)c(-c3cnc(C(C)(C)O)nc3)nc2c(N[C@H](C)c2cc(C#N)ccc2F)c1Cl` please. > 10 µM
